Values were extracted from PubChem BioAssay.

assay: growth suppression of PTEN-deleted HCT116, pilot screen, cell-based, HCT116 clonal line, CellTiter-Glo (AID 824); details: 60 h, at 10 µM, hits give low values;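 note: 0% = 20 µM Hyamine control and 100% = vehicle cell control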
Records with an inconclusive call do not appear. The source made the active and inactive calls.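 Rule for the calls: active = viability at or below 27.92% in each of two runs, the all-compound median minus 4 SD; inconclusive = no clear call, values can overlap the other calls; inactive = the rest.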
MEASURED QUANTITY: viability

- MOLECULE: "COc1cc2c(cc1OC)C(C(=O)N1CCCC1)C(c1ccccc1F)N(C)C2=O (stereo not drawn)"
  OBSERVED VALUE: "97% (inactive)"
- MOLECULE: "Cn1nc(-c2ccc(Cl)cc2)c2cc(C(=O)N3CCN(c4ccccc4)CC3)sc21"
  OBSERVED VALUE: "72.2% (inactive)"
- MOLECULE: "Cc1cc(NC(=O)CSc2cn(C)c3ccccc23)no1"
  OBSERVED VALUE: "99.1% (inactive)"
